# Test system: MS2 coat protein
# PROTOCOL_NOTES: apparent KD of MS2 coat protein; higher = weaker reporter binding
# MEASUREMENT_SETUP: Eterna round: R107; input ligand: none
Task for the reader: assign each of the following sequences its reported apparent KD of MS2 coat protein.
Give bare numbers, in nM.

Some sequences with recorded apparent KD of MS2 coat protein:
INSERT INTO results (sequence, measure, unit_abbrev, val) VALUES
  ('GGUUGAAACUGAAGGAGCGAGAUCACAAGAUUGGGUCUAACAUGAGGAUCACCCAUGUAAUCUCAGGUAGGUCGCAGUGACCAAA [Exclusion Arginine B GF 13]', 'apparent KD of MS2 coat protein', 'nM', 38.4),
  ('AGGUGGCGCGGAAGGAGCGAGUUUGCCUAUUACAUGAGGAUCACCCAUGUGGGUAAUGGGACUCAGGUAGGUCGCCGUUGUCGCU [Same State Arginine B GF 27]', 'apparent KD of MS2 coat protein', 'nM', 47.9),
  ('ACGCGCAGCAGAAGGAGCGUCUUAAUUCUACAUGAGGAUCACCCAUGUUUACAUUGGAUAUGACAGGUAGGUCGCUGGUGUGCGA [#06 Same State - Arginine B]', 'apparent KD of MS2 coat protein', 'nM', 18),
  ('GUAAUUUUAAGAAGGAGCGUCGAAAAUGGGUAAACAUGAGGAUCACCCAUGUAAAGGGAACGACAGGUAGGUCGCUUAGGAUUAC [AstromonsSSArgB#23]', 'apparent KD of MS2 coat protein', 'nM', 191);

Provide apparent KD of MS2 coat protein for all items below, preserving their order.
1. AAAUUAUCGGCGGCCGCCACUAGAGUUAGGCUUAUGUACUGGGUAACAUGAGGAUCACCCAUGUAUAGGACCGGGCCAUAAUAAA [Same State - Tryptophan B (Freestyle 4)]
2. AUCCACAGCCGAAGGAGCGCAGUAGGAUGACAUGAGGAUCACCCAUGUGUGUGAUGUGGAUUGCAGGUAGGUCGCGGAGUGGAUU [Exclusion - Arginine B (Freestyle 9)]

[55.2, 54.5]

---

# Test system: K4 kissing-loop RNA reporter;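 further: bound reporter read as fluorescence of individual clusters on recovered sequencing chips by microscopy, with normalized cluster intensities fitted with a binding model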
# PROTOCOL_NOTES: apparent KD of K4 kissing-loop reporter; higher = weaker reporter binding
# MEASUREMENT_SETUP: Eterna round: R107; input ligand: none
Task for the reader: assign each of the following sequences its reported apparent KD of K4 kissing-loop reporter.
Answers are plain numbers, in nM.

Some sequences with recorded apparent KD of K4 kissing-loop reporter:
INSERT INTO assay_data (sequence, measured_on, unit_abbrev, val) VALUES
  ('AUUAAUUUCAGAGGAUAUCGUAAUUUUAUUUAAUUUAUUCAUUUAUGCAGUGAUGUUGCUAAUAUUCGAGAAGGCUGAUUUAUAA [JR_ExcFMNB_Sub007]', 'K4 kissing-loop RNA reporter', 'nM', 55.8),
  ('AUUUAUUCGUACUUUCAGUGAUGUUGAUAACGAGGACCGGUACGGCCGCCACUCGAUUUGGCGAUUUUGUAUUUUUUAUUCUAUA [JR_SSTryptoA_Sub010]', 'K4 kissing-loop RNA reporter', 'nM', 510);

# input for lookup
Data request, read-out apparent KD of K4 kissing-loop reporter, for UAAUCACUCGAACUGCAAGUACGAGUGGAACGAGGACCGGUACGGCCGCCACUCGAUAACUUGCAGUGAUGUUGCAAGUAAGAAU [(T)''-(K)'-(T)'-(T1)-(T2)-(K1)-(K2)_Design7] 57.2
